target: KH domain-containing RNA-binding protein QKI (Mus musculus) (UniProt Q9QYS9); assay: inhibitors of QKI-RNA binding, dose response, gld-1 inhibitor project, biochemical, fluorescence polarization, mouse QKI, powder samples (AID 488770); details: 1536-well
Sequence (Q9QYS9 whole entry, looked up, the tested form may be a part): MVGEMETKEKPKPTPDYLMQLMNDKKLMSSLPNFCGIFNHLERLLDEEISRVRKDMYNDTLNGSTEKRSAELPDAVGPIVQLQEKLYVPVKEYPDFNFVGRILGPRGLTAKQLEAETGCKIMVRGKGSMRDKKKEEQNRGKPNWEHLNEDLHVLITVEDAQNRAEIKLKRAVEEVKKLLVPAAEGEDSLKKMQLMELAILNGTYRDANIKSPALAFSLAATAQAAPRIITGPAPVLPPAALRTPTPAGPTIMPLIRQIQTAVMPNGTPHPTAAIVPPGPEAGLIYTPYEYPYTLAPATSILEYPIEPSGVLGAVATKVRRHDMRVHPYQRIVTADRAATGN
The source made the active and inactive calls.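 Rule for the calls: active = IC50 at or below 10 µM; inactive = IC50 above 10 µM.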

# compound_structure, system, IC50
rows = [
    ("Nc1c(O)ccc2c1C(=O)c1ccccc1C2=O", "KH domain-containing RNA-binding protein QKI (Mus musculus) (UniProt Q9QYS9)", "2530 nM"),
    ("O=C1C2=C(SCCS2)C(=O)N1CCCO", "KH domain-containing RNA-binding protein QKI (Mus musculus) (UniProt Q9QYS9)", "2240 nM"),
    ("CCN(CC)S(=O)(=O)c1ccc(N2CCCC2)c(NS(=O)(=O)c2ccc(F)cc2)c1", "KH domain-containing RNA-binding protein QKI (Mus musculus) (UniProt Q9QYS9)", "1620 nM"),
    ("Cc1ccc(S(=O)(=O)Nc2cc3c(C(=O)Nc4ccccc4)c(C)oc3c3ccccc23)cc1", "KH domain-containing RNA-binding protein QKI (Mus musculus) (UniProt Q9QYS9)", "262 nM"),
    ("Cc1ccc(S(=O)(=O)Nc2cc3c(C(=O)Nc4ccccc4)c(C)oc3c3ccccc23)c(C)c1", "KH domain-containing RNA-binding protein QKI (Mus musculus) (UniProt Q9QYS9)", "419 nM"),
    ("O=c1[nH]c(=O)c2nc3ccccc3nc2[nH]1", "KH domain-containing RNA-binding protein QKI (Mus musculus) (UniProt Q9QYS9)", "inactive"),
    ("O=c1[nH]c2cc3ccccc3cc2nc1C(F)(F)F", "KH domain-containing RNA-binding protein QKI (Mus musculus) (UniProt Q9QYS9)", "1170 nM"),
    ("Nc1ccc2nonc2c1[N+](=O)[O-]", "KH domain-containing RNA-binding protein QKI (Mus musculus) (UniProt Q9QYS9)", "> 59600 nM (inactive)"),
    ("CCCCn1c(=O)[nH]c2nc3cc(NC(C)=O)ccc3nc2c1=O", "KH domain-containing RNA-binding protein QKI (Mus musculus) (UniProt Q9QYS9)", "1590 nM"),
    ("Nc1ccc(O)c2c1C(=O)c1ccccc1C2=O", "KH domain-containing RNA-binding protein QKI (Mus musculus) (UniProt Q9QYS9)", "2280 nM"),
    ("COc1ccc(/C=C(\\CC(=O)O)c2nc3ccccc3s2)cc1O", "KH domain-containing RNA-binding protein QKI (Mus musculus) (UniProt Q9QYS9)", "155 nM"),
    ("CC1=CC(=O)c2c(O)ccc(O)c2C1=O", "KH domain-containing RNA-binding protein QKI (Mus musculus) (UniProt Q9QYS9)", "5620 nM"),
    ("COc1ccc(C=Nc2c(-c3ccco3)nc3ccccn23)cc1OC", "KH domain-containing RNA-binding protein QKI (Mus musculus) (UniProt Q9QYS9)", "inactive"),
    ("O=C(CN1C(=O)NC2(CCCCC2)C1=O)Oc1ccc2c(C(F)(F)F)cc(=O)oc2c1", "KH domain-containing RNA-binding protein QKI (Mus musculus) (UniProt Q9QYS9)", "2130 nM"),
    ("CCOC(=O)c1c(C)oc2c1cc(NS(=O)(=O)c1ccc(C)cc1)c1ccccc12", "KH domain-containing RNA-binding protein QKI (Mus musculus) (UniProt Q9QYS9)", "> 59600 nM (inactive)"),
]
